src = patent US6184238A

# testedOn: Thromboxane synthase (Homo sapiens, UniProt P24557)
# Construct: Human platelet microsomes were used
# Sequence (P24557 whole entry): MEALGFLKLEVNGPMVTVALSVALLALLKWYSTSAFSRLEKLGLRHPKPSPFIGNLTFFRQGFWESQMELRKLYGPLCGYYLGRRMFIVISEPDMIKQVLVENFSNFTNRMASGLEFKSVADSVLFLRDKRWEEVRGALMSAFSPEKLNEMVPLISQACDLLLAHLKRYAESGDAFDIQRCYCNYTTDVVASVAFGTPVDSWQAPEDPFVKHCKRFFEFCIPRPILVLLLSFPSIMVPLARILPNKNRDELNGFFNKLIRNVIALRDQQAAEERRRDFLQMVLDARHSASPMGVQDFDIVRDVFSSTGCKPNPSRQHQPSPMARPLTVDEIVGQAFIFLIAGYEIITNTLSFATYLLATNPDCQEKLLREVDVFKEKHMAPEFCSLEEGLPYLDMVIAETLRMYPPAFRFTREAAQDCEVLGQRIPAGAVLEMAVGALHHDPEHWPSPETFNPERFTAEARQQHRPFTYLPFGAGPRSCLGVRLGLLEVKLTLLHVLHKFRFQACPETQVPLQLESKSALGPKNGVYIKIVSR
# assayRemarks: Thromboxane synthase inhibitory activity (thromboxane B2 production, human platelet microsomes)
# protocolConditions: prostaglandin H2 added, pH 7.5, read-out: TxSI IC50 (inhibition of thromboxane B2 production)
pIC50: −log10 of the molar value.
Quick list: pIC50 per entry.

| compound | testedOn | pIC50 |
| --- | --- | --- |
| Cc1c(-c2cccnc2)n(CCCCCCN(O)C(N)=O)c2ccc(Cl)cc12 | Thromboxane synthase (Homo sapiens, UniProt P24557) | 9.15 |
| NC(=O)N(O)CCCCCCCCCCCCn1c(-c2cccnc2)cc2ccccc21 | Thromboxane synthase (Homo sapiens, UniProt P24557) | 8.52 |
| NC(=O)N(O)CC=Cc1cn(Cc2cccnc2)c2ccccc12 | Thromboxane synthase (Homo sapiens, UniProt P24557) | 6.82 |
| Cn1cc(-c2cccnc2)c2cc(CN(O)C(N)=O)ccc21 | Thromboxane synthase (Homo sapiens, UniProt P24557) | 7.52 |
| Cc1c(-c2cccnc2)c2ccccc2n1CCN(O)C(N)=O | Thromboxane synthase (Homo sapiens, UniProt P24557) | 8.30 |
| Cc1c(-c2cccnc2)n(C)c2ccc(C#CC(C)N(O)C(N)=O)cc12 (centres unmarked) | Thromboxane synthase (Homo sapiens, UniProt P24557) | 7.52 |
| NC(=O)N(O)Cc1ccc(Cc2cn(Cc3cccnc3)c3ccccc23)cc1 | Thromboxane synthase (Homo sapiens, UniProt P24557) | 7.15 |
| NC(=O)N(O)CCCCCCCCn1c(-c2cccnc2)cc2ccccc21 | Thromboxane synthase (Homo sapiens, UniProt P24557) | 9.15 |
| Cc1c(-c2cccnc2)n(C)c2ccc(CN(O)C(N)=O)cc12 | Thromboxane synthase (Homo sapiens, UniProt P24557) | 7.40 |
| NC(=O)N(O)Cc1cn(Cc2cccnc2)c2ccccc12 | Thromboxane synthase (Homo sapiens, UniProt P24557) | 6.15 |
| CC(c1ccc2c(c1)c(-c1cccnc1)cn2C)N(O)C(N)=O (centres unmarked) | Thromboxane synthase (Homo sapiens, UniProt P24557) | 7.22 |
| Cc1c(-c2cccnc2)n(C)c2ccc(C(C)N(O)C(N)=O)cc12 (centres unmarked) | Thromboxane synthase (Homo sapiens, UniProt P24557) | 7.15 |
| NC(=O)N(O)CCCCCCn1cc(-c2cccnc2)c2ccccc21 | Thromboxane synthase (Homo sapiens, UniProt P24557) | 7.82 |
| NC(=O)N(O)CCCCCCn1cc(Cc2cccnc2)c2ccccc21 | Thromboxane synthase (Homo sapiens, UniProt P24557) | 6.52 |
| NC(=O)N(O)CCCCCCCCCCn1c(-c2cccnc2)cc2ccccc21 | Thromboxane synthase (Homo sapiens, UniProt P24557) | 9.10 |
| Cn1c(-c2cccnc2)c(C=CCN(O)C(N)=O)c2ccccc21 | Thromboxane synthase (Homo sapiens, UniProt P24557) | 7.40 |
| NC(=O)N(O)CCn1cc(-c2cccnc2)c2ccccc21 | Thromboxane synthase (Homo sapiens, UniProt P24557) | 7.82 |

----------
# testedOn: Lipoxygenase (Rattus norvegicus, UniProt P12527)
# Construct: Using rat polymorphonuclear leukocytes; endogenous in cells; host or cells: casein-elicited peritoneal polymorphonuclear leukocytes of male Wistar rats
# Sequence (P12527 whole entry): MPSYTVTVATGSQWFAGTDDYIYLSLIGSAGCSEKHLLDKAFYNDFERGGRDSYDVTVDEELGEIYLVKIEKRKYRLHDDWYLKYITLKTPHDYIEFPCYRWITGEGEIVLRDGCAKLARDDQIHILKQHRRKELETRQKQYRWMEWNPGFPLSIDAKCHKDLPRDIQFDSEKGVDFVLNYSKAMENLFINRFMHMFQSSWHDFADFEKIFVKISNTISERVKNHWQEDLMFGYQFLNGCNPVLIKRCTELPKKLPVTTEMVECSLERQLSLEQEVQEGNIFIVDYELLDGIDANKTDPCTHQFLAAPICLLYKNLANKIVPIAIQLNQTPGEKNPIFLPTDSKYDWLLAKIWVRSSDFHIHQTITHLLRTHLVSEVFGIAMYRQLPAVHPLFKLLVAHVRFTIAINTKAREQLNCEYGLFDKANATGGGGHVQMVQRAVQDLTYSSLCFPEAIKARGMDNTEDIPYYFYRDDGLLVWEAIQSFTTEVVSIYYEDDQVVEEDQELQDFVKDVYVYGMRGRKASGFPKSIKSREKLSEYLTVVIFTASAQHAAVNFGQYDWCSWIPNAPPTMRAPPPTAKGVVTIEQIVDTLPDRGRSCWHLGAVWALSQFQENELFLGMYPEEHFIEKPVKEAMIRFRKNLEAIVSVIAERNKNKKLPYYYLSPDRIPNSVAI
# assayRemarks: Lipoxygenase inhibitory activity (leukotriene B4 production, rat polymorphonuclear leukocytes)
# Assay type: cell-based
# protocolConditions: rat polymorphonuclear leukocytes; calcium ionophore A-23187; 37° C.; read-out: LTBI IC50 (inhibition of leukotriene B4 production)
pIC50: −log10 of the molar value.
outcomeMeasure: pIC50

| compound | testedOn | recordedNumber |
| --- | --- | --- |
| Cc1c(-c2cccnc2)n(C)c2ccc(C#CC(C)N(O)C(N)=O)cc12 (stereo not shown) [Compound 44] | Lipoxygenase (Rattus norvegicus, UniProt P12527) | 6.22 |
| Cc1c(-c2cccnc2)c2ccccc2n1CCN(O)C(N)=O [Compound 20] | Lipoxygenase (Rattus norvegicus, UniProt P12527) | 5.82 |
| NC(=O)N(O)CCCCCCCCCCCCn1c(-c2cccnc2)cc2ccccc21 [Compound 1] | Lipoxygenase (Rattus norvegicus, UniProt P12527) | 8.22 |
| Cn1c(-c2cccnc2)c(C=CCN(O)C(N)=O)c2ccccc21 [Compound 24] | Lipoxygenase (Rattus norvegicus, UniProt P12527) | 5.40 |
| NC(=O)N(O)CC=Cc1cn(Cc2cccnc2)c2ccccc12 [Compound 25] | Lipoxygenase (Rattus norvegicus, UniProt P12527) | 6.70 |
| NC(=O)N(O)CCCCCCn1cc(Cc2cccnc2)c2ccccc21 [Compound 18] | Lipoxygenase (Rattus norvegicus, UniProt P12527) | 7.00 |
| Cn1cc(-c2cccnc2)c2cc(CN(O)C(N)=O)ccc21 [Compound 40] | Lipoxygenase (Rattus norvegicus, UniProt P12527) | 6.15 |
